CONDITION_INFO: in isopropanol, 313.15 K
OUTCOME_MEASURE: solubility (mole fraction)
Number, no unit, nothing else.

Task item: I would be grateful if you could share the reported solubility (mole fraction) for "CC1(C)CCC2=C(O1)c1ccccc1C(=O)C2=O" .
Reply: 0.00754

###

CONDITION_INFO: in acetone, 303.15 K
OUTCOME_MEASURE: solubility (mole fraction)
The answer should be written as a number, with no unit following it.

Task item: Record request: solubility (mole fraction) value, item "CC1(C)CCC2=C(O1)c1ccccc1C(=O)C2=O"
Reply: 0.0216

###

CONDITION_INFO: in ethanol, 298.15 K
OUTCOME_MEASURE: solubility (mole fraction)
Format: numeric value only, no unit, no commentary.

Task item: Can you share its solubility (mole fraction)? I mean this compound: "CC1(C)CCC2=C(O1)c1ccccc1C(=O)C2=O"
Reply: 0.00499
